Data provenance is patent US7235366.

# Tested on: T1, mouse delta opioid receptor (mORD1, msl-2) (Mus musculus)
# T1 chain: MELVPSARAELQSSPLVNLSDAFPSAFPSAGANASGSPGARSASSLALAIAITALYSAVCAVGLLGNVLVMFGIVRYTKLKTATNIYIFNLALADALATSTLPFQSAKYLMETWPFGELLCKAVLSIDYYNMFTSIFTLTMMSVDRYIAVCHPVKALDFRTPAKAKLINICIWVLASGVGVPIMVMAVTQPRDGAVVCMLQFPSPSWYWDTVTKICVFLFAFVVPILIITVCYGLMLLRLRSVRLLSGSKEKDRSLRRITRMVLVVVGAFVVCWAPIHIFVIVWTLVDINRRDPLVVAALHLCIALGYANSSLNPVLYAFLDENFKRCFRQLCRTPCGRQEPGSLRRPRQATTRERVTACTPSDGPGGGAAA
# Method summary: competition
Positions of bridges follow the written chain, without caps; N, C: chain ends. No end group written: not given here.
Parameter measured: IC50

In: Quick check: IC50 of SANSNPAMAPRERKAGCKNFFWKTFTSC (disulfide 17-28 (inferred)) [SRIF] ?
Out: > 1000 nM
